tgt: 5-HT2C receptor (Homo sapiens, UniProt P28335)
Sequence (P28335 33-458): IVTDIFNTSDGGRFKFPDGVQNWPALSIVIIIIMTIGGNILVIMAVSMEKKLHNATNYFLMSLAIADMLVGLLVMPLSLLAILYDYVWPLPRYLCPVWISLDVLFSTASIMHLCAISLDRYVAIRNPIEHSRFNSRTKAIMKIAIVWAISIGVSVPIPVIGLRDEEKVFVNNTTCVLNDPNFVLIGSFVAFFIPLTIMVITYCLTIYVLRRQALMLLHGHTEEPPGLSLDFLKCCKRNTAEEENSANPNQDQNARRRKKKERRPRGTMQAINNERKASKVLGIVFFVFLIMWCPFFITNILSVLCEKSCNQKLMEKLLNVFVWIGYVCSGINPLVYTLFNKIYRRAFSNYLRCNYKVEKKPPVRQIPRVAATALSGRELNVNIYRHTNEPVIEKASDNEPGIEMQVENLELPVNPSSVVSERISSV
Sequence (P32121 whole entry partner): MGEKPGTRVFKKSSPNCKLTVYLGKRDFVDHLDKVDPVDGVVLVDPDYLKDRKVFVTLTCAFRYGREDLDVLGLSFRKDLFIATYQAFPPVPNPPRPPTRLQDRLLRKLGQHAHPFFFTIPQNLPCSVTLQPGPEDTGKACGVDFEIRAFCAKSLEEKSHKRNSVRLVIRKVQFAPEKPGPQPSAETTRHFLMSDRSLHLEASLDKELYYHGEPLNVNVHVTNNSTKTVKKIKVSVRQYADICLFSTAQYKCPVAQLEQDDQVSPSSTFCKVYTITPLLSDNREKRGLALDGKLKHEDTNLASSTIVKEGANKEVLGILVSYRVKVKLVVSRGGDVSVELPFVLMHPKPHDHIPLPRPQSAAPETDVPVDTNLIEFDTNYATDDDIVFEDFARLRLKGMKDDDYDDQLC
experiment-notes: Human 5-HT2C functional assay (beta-arrestin2 recruitment, U2OS_HTR2C_β-Arrestin cells)
setup-conditions: beta-arrestin2 recruitment, U2OS_HTR2C_β-Arrestin cells, 1.5 h incubation; read-out: EC50 5-HT2C (potency in functional assay)
pEC50: −log10 of the molar value. Structures can show the parent of a compound that is named as a salt.
For each entry below, report its pEC50 value.

Per the records, this molecule ( Cc1nc(OC2CCC(C(F)(F)F)CC2)ccc1CNC(=O)C1CCCN1 (stereo not shown) ) has pEC50 equal to 6.70 to 7.70

The reported value for COc1nc(OCC2CCC(F)(F)CC2)c(F)cc1CNC(=O)[C@@H]1CCCN1 in terms of pEC50 is > 7.70

molecule COc1nc(N[C@H]2CC[C@H](C(F)(F)F)CC2)c(F)cc1CNC(=O)[C@@H]1CCCN1.Cl [Example 144, Hydrochloride] , pEC50 observed: 6.70 to 7.70

The recorded pEC50 for entry COc1nc(O[C@H]2C[C@H](C(F)(F)F)C2)c(F)cc1CN(C)C(=O)[C@@H]1CCCN1 [Example 120, Hydrochloride] equals > 7.70

---

experiment-notes: Metabolic stability in human liver microsomes, unbound intrinsic clearance (Cl int/fu mic)
Format: in vitro ADME
setup-conditions: human, liver microsomes, pH 7.4, human liver microsomes 0.25 mg/mL, 0.5 μM compound, NADPH, read-out: Cl int, mic unb. (h) [l/h/kg] (unbound intrinsic clearance, human)
Where a name gives a salt, the structure may show the parent alone.
readout: CLint scaled at 0.5 μM

// field: CLint scaled at 0.5 μM; key: COc1nc(OC2CCC(C(C)(F)F)CC2)c(F)cc1CNC(=O)[C@@H]1CCCN1 (single isomer, unassigned; isomer 1) [Example 73] ; value = 5 to 50 L/h/kg

Memo: COc1nc(OC(C(F)(F)F)C(F)(F)F)c(F)cc1CNC(=O)[C@@H]1CCCN1 [Example 111, Hydrochloride] , reported CLint scaled at 0.5 μM: 5 to 50 L/h/kg

The measured CLint scaled at 0.5 μM associated with COc1nc(OCC(F)(F)C(F)F)c(F)cc1CN(C)C(=O)[C@@H]1CCCN1C [Example 102, Hydrochloride] reads < 5 L/h/kg

Quick note, CLint scaled at 0.5 μM for COc1nc(OC2CC(F)(F)C2)c(F)cc1CNC(=O)[C@@H]1CCCN1C [Example 71, Hydrochloride] landed at < 5 L/h/kg

---

tgt: 5-HT2C receptor (Homo sapiens, UniProt P28335)
Construct: host or cells: U2OS
experiment-notes: Human 5-HT2C functional assay (beta-arrestin2 recruitment, U2OS_HTR2C_β-Arrestin cells)
Type: cell-based
setup-conditions: relative efficacy vs response to 10 μM 5-HT or maximal 5-HT effect (100%)
Where a name gives a salt, the structure may show the parent alone.
Provide the reported Emax of each item.

Emax reported for this compound COc1nc(O[C@H]2CCC[C@@H](C(F)(F)F)C2)c(F)cc1CNC(=O)[C@@H]1CCCN1 (relative stereo) [Example 88, Hydrochloride] : > 70%

The compound listed as COc1nc(NCc2ccc(F)cc2)c(F)cc1CNC(=O)[C@@H]1CCCN1 [Example 177] shows Emax equal to > 70%

Please fill in: Emax reported for COc1nc(NC2CCC(F)(F)CC2)c(F)cc1CN(C)C(=O)[C@@H]1CCCN1 [Example 166] = 50 to 70%

Entry COc1nc(OC2CCC(OC)CC2)c(F)cc1CNC(=O)[C@@H]1CCCN1 (some centres unmarked) [Example 12] — recorded Emax = > 70%

Recorded result, COc1nc(N2CC(Oc3ccc(Cl)cc3)C2)c(F)cc1CNC(=O)[C@@H]1CCCN1 [Example 151] , Emax: > 70%

Form: compound = COc1nc(O[C@@H]2CCC(F)(F)C2)c(F)cc1CNC(=O)[C@@H]1CCCN1C [Example 27, Hydrochloride] ; Emax = > 70%

Memo: COc1nc(OC2CCC(F)(F)CC2)c(F)cc1CNC(=O)[C@@H]1CCN1C [Example 39] , reported Emax: 50 to 70%

get_value(item= COc1nc(OC2CC(F)(F)C2)cnc1CNC(=O)[C@@H]1CCCN1 [Example 107] , readout=Emax) returns > 70%

Lookup result for COc1nc(OCC2CC(F)(F)C2)c(F)cc1CN(C)C(=O)[C@@H]1CCCN1C [Example 106, Hydrochloride] ; measured Emax: 30 to 50%

Measured Emax of COc1nc(O[C@H]2CC[C@H](C(F)(F)F)CC2)c(F)cc1CNC(=O)[C@@H]1CCCN1 [Example 11] : > 70%

The reported Emax of the compound COc1nc(N2CCOC(c3ccccc3)C2)c(F)cc1CNC(=O)[C@@H]1CCCN1 (some centres unmarked) [Example 173] was 50 to 70%

response.value for COc1nc(OCC23CC4CC(CC(C4)C2)C3)c(F)cc1CNC(=O)[C@@H]1CCCN1 [Example 70] (field: Emax) = > 70%

Data point: Cc1nc(OC2CCC(C(F)(F)F)CC2)ccc1CNC(=O)C1CCCN1 (centres unmarked) [Example 65] ; Emax = 50 to 70%

The reported value for COc1nc(OC2CC3C(C2)C3(F)F)c(F)cc1CNC(=O)[C@@H]1CCCN1 (some centres unmarked) [Example 54] in terms of Emax is > 70%

Looking up COc1nc(C2CC2)c(F)cc1CNC(=O)[C@@H]1CCCN1 [Example 127] , I found its Emax recorded as > 70%

Entry COc1nc(OC2CCC(C(C)(F)F)CC2)c(F)cc1CNC(=O)[C@@H]1CCCN1 (single isomer, unassigned; isomer 1) [Example 73] — recorded Emax = > 70%

The compound listed as COc1nc(C(F)(F)C(Cl)c2ccccc2)c(F)cc1CN(C)C(=O)C1CCCN1 (centres unmarked) [Example 192, Dihydrochloride] has a reported Emax of 50 to 70%

Just so you know, measured Emax for COc1nc(OCC2CC2(F)F)c(F)cc1CNC(=O)[C@@H]1CCCN1 (some centres unmarked) [Example 41] came out at > 70%

// Emax lookup, compound = COc1nc(OCC2CCC(C(F)(F)F)CC2)c(F)cc1CNC(=O)[C@@H]1CCCN1C (some centres unmarked) [Example 15] , result: > 70%

Just so you know, measured Emax for COc1nc(O[C@H]2CC[C@@H](C(F)(F)F)CC2)c(F)cc1CN(C)C(=O)[C@@H]1CCCN1 [Example 119, hydrochloride] came out at > 70%

Value of Emax reported for the compound COc1nc(OCC(F)(C(F)(F)F)C(F)(F)F)c(F)cc1CNC(=O)[C@@H]1CCCN1 [Example 69, Hydrochloride] is > 70%

In plain terms, COc1nc(NC2CCC(C(F)(F)F)CC2)c(F)cc1CN(C)C(=O)[C@@H]1CCCN1 (mixture of isomers) [Example 157] has a documented Emax of 50 to 70%

The value of Emax measured for the compound COc1nc(C2=CCC(OC)CC2)c(F)cc1CNC(=O)[C@@H]1CCCN1 (some centres unmarked) [Example 167] turned out to be > 70%

Short answer for COc1nc(O[C@H]2CC[C@@H](F)CC2)c(F)cc1CNC(=O)[C@@H]1CCCN1C [Example 29] : Emax was > 70%

Value of Emax reported for the compound COc1nc(N2CCC(F)(F)CC2)c(F)cc1CNC(=O)[C@@H]1CCCN1 [Example 134] is > 70%

COc1nc(O[C@H]2C[C@H](C(F)(F)F)C2)c(F)cc1CN(C)C(=O)[C@@H]1CCCN1 [Example 120, Hydrochloride] yielded Emax of 50 to 70%

# compound COc1nc(N(C)C2CCC(F)(F)CC2)c(F)cc1CNC(=O)[C@@H]1CCCN1 [Example 154] ; its Emax = > 70%

Memo: COc1nc(Cc2ccccc2)c(F)cc1CNC(=O)[C@@H]1CCCN1 [Example 145] , reported Emax: > 70%

Lookup result for COc1nc(NCc2ccccc2)c(F)cc1CNC(=O)[C@@H]1CCCN1 [Example 170] ; measured Emax: > 70%

Sure, the documented Emax for COc1nc(NCC2(C(F)(F)F)CC2)c(F)cc1CNC(=O)[C@@H]1CCCN1 [Example 152] is > 70%

According to the records, this compound COc1nc(OC2CCC(CF)CC2)c(F)cc1CNC(=O)[C@@H]1CCCN1 (some centres unmarked) [Example 75] displays Emax of > 70%

Sure, the documented Emax for COc1nc(OCC2(C(F)F)CC2)c(F)cc1CNC(=O)[C@@H]1CCCN1C [Example 96] is > 70%
